Values from ChEMBL document CHEMBL5331097

molecular target: Macrophage migration inhibitory factor (Homo sapiens, UniProt P14174); experiment: Inhibition of human recombinant MIF enolase activity using phenylpyruvate as substrate; conditions: read-out: IC50
Catalogue of pIC50 readings, one per entry.
Keep in mind that pIC50 stands for -log10 of concentration in molar terms.

| substance.smiles | pIC50 |
| --- | --- |
| CN(C)c1ccc(/C=C2\CCc3cc(O)ccc3C2=O)cc1 | 4.40 |
| COc1ccc2c(c1)C(=O)/C(=C/c1ccc(OC)c(O)c1)C2 | 4.13 |
| COc1ccc2c(c1)CC/C(=C\c1ccc(O)c(O)c1)C2=O | 3.88 |
| O=C1/C(=C/c2ccc(O)cc2)COc2ccccc21 | 4.14 |
| O=C1/C(=C/c2cccc(O)c2)CCc2cc(O)ccc21 | 3.95 |

q: May I ask what pIC50 has been recorded for O=C1/C(=C/c2cccs2)CCc2cc(O)ccc21 ?
a: 5.19

q: O=C1/C(=C/c2cccc(O)c2)CCc2ccccc21 , same question.
a: 4.44

q: Now the compound COc1cc(/C=C2\CCc3cc(O)ccc3C2=O)cc(OC)c1OC
a: 3.32

q: O=C1/C(=C/c2cccc(O)c2O)Cc2ccccc21 , same question.
a: 4.41

q: And for O=C1/C(=C/c2c[nH]c3ccccc23)CCc2cc(O)ccc21 ?
a: 3.68

q: What about O=C1/C(=C/c2ccco2)CCc2cc(O)ccc21 ?
a: 4.42

q: Another compound to check: COc1ccc(/C=C2\CCc3cc(O)ccc3C2=O)cc1
a: 4.36

q: Then what about the compound COc1ccc2c(c1)C(=O)/C(=C/c1ccc(O)c(OC)c1)C2 ?
a: 4.42

q: Okay, and COc1ccc2c(c1)CC/C(=C\c1ccncc1)C2=O ?
a: 3.97

###

# pIC50 per record follows
molecular target: Macrophage migration inhibitory factor (Homo sapiens); experiment: Inhibition of human recombinant MIF ketonase activity using phenylpyruvate as substrate; conditions: read-out: IC50
In plain terms, pIC50 is the concentration in mol/L turned into minus its base-10 logarithm.

// below: answered molecules
| substance.smiles | pIC50 |
| --- | --- |
| O=C1/C(=C/c2ccc(O)cc2)COc2ccccc21 | 3.90 |
| O=C1/C(=C/c2cc(O)cc(O)c2)CCc2ccccc21 | 4.19 |
| COc1cc(/C=C2\CCc3cc(O)ccc3C2=O)ccc1O | 4.52 |

q: Find the recorded pIC50 belonging to O=C1/C(=C/c2ccccc2O)Cc2ccccc21 and report it.
a: 4.39

q: Next: O=C1/C(=C/c2ccc(O)cc2)CCc2ccccc21
a: 4.31

q: Do the same for COc1ccc2c(c1)C(=O)/C(=C/c1cccc(O)c1O)C2 please
a: 5.01

q: What would you report for O=C1/C(=C/c2ccco2)CCc2cc(O)ccc21 ?
a: 4.50

q: Next up: O=C1/C(=C/c2ccccn2)CCc2cc(O)ccc21
a: 4.49

q: Now the molecule O=C1/C(=C/c2ccccc2O)CCc2cc(O)ccc21
a: 4.41

###

Biological target: Macrophage migration inhibitory factor (Homo sapiens, UniProt P14174)
Sequence (P14174 whole entry): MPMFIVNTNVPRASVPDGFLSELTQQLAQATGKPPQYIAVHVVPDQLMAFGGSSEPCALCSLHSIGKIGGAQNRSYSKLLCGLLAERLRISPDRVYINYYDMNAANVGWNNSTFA
Assay: Inhibition of human recombinant MIF enolase activity using phenylpyruvate as substrate
property.label: IC50

| substance.smiles | reported.value |
| --- | --- |
| N#Cc1ccc(/C=C2\CCc3cc(O)ccc3C2=O)cc1 | Not Active |
| O=C1/C(=C/c2ccc(O)c(O)c2)Cc2ccccc21 | Not Active |
| O=C1/C(=C/c2ccc(O)cc2)CCc2cc(O)ccc21 | Not Active |
| O=C1/C(=C/C=C/c2ccccc2)CCc2cc(O)ccc21 | Not Active |
